Target: GlyRS (Homo sapiens)
Construct: made in house; host or cells: E. coli BL21(DE3)
Sequence (P41250 37-739): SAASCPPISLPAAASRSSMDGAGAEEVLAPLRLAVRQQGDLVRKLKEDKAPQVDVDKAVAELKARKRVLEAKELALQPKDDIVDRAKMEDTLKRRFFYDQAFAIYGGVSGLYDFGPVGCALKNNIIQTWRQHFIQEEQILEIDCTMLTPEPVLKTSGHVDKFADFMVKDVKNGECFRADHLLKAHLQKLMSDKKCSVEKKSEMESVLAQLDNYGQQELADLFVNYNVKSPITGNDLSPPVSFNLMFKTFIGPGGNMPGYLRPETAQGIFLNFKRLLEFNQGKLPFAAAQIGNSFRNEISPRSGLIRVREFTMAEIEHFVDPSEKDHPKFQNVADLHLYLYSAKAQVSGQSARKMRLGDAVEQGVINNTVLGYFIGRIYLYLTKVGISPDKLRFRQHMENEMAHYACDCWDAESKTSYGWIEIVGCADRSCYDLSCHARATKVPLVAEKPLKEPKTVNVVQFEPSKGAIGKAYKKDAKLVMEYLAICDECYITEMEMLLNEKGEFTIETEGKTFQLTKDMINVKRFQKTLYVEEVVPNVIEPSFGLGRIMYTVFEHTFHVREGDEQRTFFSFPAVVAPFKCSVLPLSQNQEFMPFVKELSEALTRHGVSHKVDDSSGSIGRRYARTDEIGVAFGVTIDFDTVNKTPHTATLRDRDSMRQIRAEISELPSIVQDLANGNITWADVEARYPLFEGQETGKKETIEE
Assay: Fluorescence-based thermal shift assay (TSA)
Format: binding
Details: shift between Tm of GlyRS with and without compound
Experimental: Thermal shift assays were conducted using a StepOnePlus 7 Flex Real-Time Cycler (Applied Biosystems, Waltham, MA, USA). […] During the thermal denaturation of the protein, the fluorescence signal of SYPRO orange at 490/530 nm excitation/emission wavelengths was recorded by the instrument at 30 s intervals. The fluorescence signal was continuously monitored and plotted against the temperature, with the midpoint of the protein unfolding transition defined as the melting temperature (Tm). […]
experimental endpoint: △Tm (°C)
Answer format: numeric, °C implied, no suffix.

stdin: I'd like to know its △Tm. The compound in question is O=c1cc(-c2ccc(O)cc2)oc2cc(O)c(O)c(O)c12
stdout: −5.3

stdin: If you can, please state the reported △Tm value of Cc1ccc(S(=O)(=O)NCl)cc1 .
stdout: −5.13

stdin: Could you tell me which △Tm is on file for COC[C@H]1C[C@@H](c2nc(-c3ccc4c(c3)COc3cc5c(ccc6nc([C@@H]7CC[C@H](C)N7C(=O)[C@@H](NC(=O)OC)C(C)C)[nH]c65)cc3-4)c[nH]2)N(C(=O)[C@H](NC(=O)OC)c2ccccc2)C1 [Velpatasvir, reference compound] ?
stdout: −5.4

stdin: # △Tm lookup, item C[C@@H]1C[C@H]2[C@@H]3CCC4=CC(=O)C=C[C@]4(C)[C@@]3(Cl)[C@@H](O)C[C@]2(C)[C@@]1(OC(=O)c1ccco1)C(=O)CCl [Mometasone furoate, reference compound]
stdout: −11.58

stdin: Could you tell me which △Tm is on file for CC(C)c1cc2c(c(O)c1O)[C@@]1(C(=O)O)CCCC(C)(C)[C@@H]1CC2 ?
stdout: −5.9

stdin: // returns reported △Tm for input Oc1c(I)cc(I)c2cccnc12 [Iodoquinol, reference compound]
stdout: −11.97

stdin: Sample Cc1c(OCC(F)(F)F)ccnc1C[S+]([O-])c1nc2ccccc2[nH]1 (stereo not shown) [Lansoprazole, reference compound] — what was its △Tm?
stdout: −5.03

stdin: Need △Tm, item CC(=O)N[C@@H](C)C(=O)O
stdout: 5.96

stdin: Can you share its △Tm? I mean this compound: COC(=O)C1=C(C)NC(C)=C(C(=O)OCC(C)C)C1c1ccccc1[N+](=O)[O-] (stereo not shown) [Nisoldipine, reference compound]
stdout: −8.96

stdin: Need △Tm of Oc1cc2c3c(c1)c1cc4c(cc1c[n+]3CC2)OCO4 , thanks.
stdout: −13.01
